# Assay procedure: yeast display, Sf9 membrane polyspecificity reagent, FACS + sequencing; frameworks hold sequencing errors
Observable: polyreactivity (PSR sort gate)

QVQLVESGGGLVQAGGSLRLSCAASGSTFYRNAMGWYRQAPGKERELVAAISTRGSSTYYADSVKGRFTISRDNAKNTVYLQMNSLKPEDTAVYYCTADGIYPVLKFDYDYWGQGTQVTVSS; low polyreactivity
QVQLVESGGGLVQAGGSLRLSCAASGSTFAEYAMGWYREAPGKERELVADITWSGGSTYYADSVKGRFTISRDNAKNTVYLQMNSLKPDDTAVYYCYFWPVFYDFYLYGYWGQGTQVTVSS; low polyreactivity
QVQLVESGGGLVQAGGSLRLSCAASGSIFLAYAMGWDRQAPGKEREFVAAITWSGDSTYYADSVKGRFTISRDNAKNTVYLQMNSLKPEDTAVYYCAADYFGGPSYEFDYWGQGTQVTVSS; low polyreactivity

----------
# Assay procedure: yeast display, Sf9 membrane polyspecificity reagent, FACS + sequencing; frameworks hold sequencing errors
Observable: polyreactivity (PSR sort gate)

Here are 4 sequences together with their reported answers.
QVQLVESGGGLVKAGGSLRLSCAASGIIFDYYAMGWYRQAPGKERELVAAISWDGGRTYYADSVKGRFTISRDNAKNTVYLQMNSLKPEDTAVYYCNKDYWYGYSDFDYWGQGTQVTVSS; low polyreactivity
QVQLVESGGGLVQAGGSLRLSCAASGFTFRYYAMGWYRQAPGKERELVAAINYSGGSTFYADSVKGRFTISRDNAKNTVYLQMNSLKPEDTAVYYCAATRLTPYIYGGKYNYWGQGTQVTVSS; high polyreactivity
QVQLVESWGGLVQAGGSLRLSCAASGRTFYYYTMGWYRQAPGKEREFVAAISWSGGGTYYADSVKGRFTISRDNAKNTDYLQMNILKPEDTAVYYCATGPRIRYDYWGQGTQVNVSS; high polyreactivity
QVQLVESGGGLVQAGGSLRLSCAASVRTFYIYAMGWYRQAPGKERELDAAITWSGGTTYYADSVKGRFTISRDIAINTVYLQMNSLKPEDTAVYYCAADRYGFYLESYYCGQGTQVTVSS; low polyreactivity

Query sequence follows.
Prompt: Item QVQLVESGGGLVQAGGSLRLICAASGSIFTIYAMGWYRQAPGKERELVAAISYSDTSTYYADSVKGRFTISRDNAKNTVYLQMNSLKPEDTAVYYCAAEDLWYIAYWDDMDYWGQGTQVTVSS has what recorded polyreactivity (PSR sort gate)?
Completion: low polyreactivity

----------
# Assay procedure: yeast display, Sf9 membrane polyspecificity reagent, FACS + sequencing; frameworks hold sequencing errors
Observable: polyreactivity (PSR sort gate)

Some solved entries appear below for comparison.
QVQLVESGGGLVQAGGSLRLSCAASGSTYVYYAMGWYRQAPGKERELVAAISSSGGSTYYADSVKGRFTISRDNAKNTVYLQMNILKPEDTAVYYCNRYSSYIPYPYNYWGQGTQVTVSS; high polyreactivity
QVQLVDSGGGLVQAGGSLRLSCAASGFILGSNVMGWYRQAPGIERELVAAISYSGGSTYYADSVKGRFTISRDNAMNTVYLQMNILKPEDTAVYYCNARPSDVWYYYWGQGTQVTVSS; low polyreactivity
QVQLVESAGGLVQAGGSLRLSCAASGITFAWYAMGWYRQAPGKERELVAAITRGGGSTYYADSVKGRFTISRDNAKNTVYLQMNSLKPEATAVYYCAARPYSYPYGYWGQGTQVTVSS; low polyreactivity
QVQLVESRGGLVQAGGSLRLSCAASGFIFTRYVMGWYRQAPGKERELVAGISTRGARTYYADSVKGRFTISRDNAKNTVYLQIHSLTPEDTAVYYCNKDWSRGWNYEYDYWGQGTQVTVSS; high polyreactivity
QVQLVESGGGLVQAGRSLRLSCAASGSILGGNAMGWYRQAPGKDRELVAAITFSGGGTYYADSVKGRFTISRDNAKNTVDFQMNSLKPEDTAVYYCAADKVGYTYEFDYWGQGTQVTVSS; low polyreactivity

Prompt: Any idea what polyreactivity (PSR sort gate) was measured for QVQLVESGGGLVQAGGSLRLSCAATGRIFLKYTMGWYRQAPGKERELVAAISRGRSTYYADSVKGRFTISRDNAMNTVYLQMNSLKPEDTAVYYFAATSYRRTGYYYWGQGTQVTVSS ?
Completion: high polyreactivity

Prompt: Would you mind telling me what polyreactivity (PSR sort gate) value was observed for QVQLVESGGGLVQAGGSLRLSCAASGRIFGYYDMGWYRQAPGKERELVAAITWSGGSTYYADSVKGRFTISRDNAKNTVYLQMNSLKPEDTAVYYCAAEKRYRKAFDYWGQGTQVTVSS ?
Completion: high polyreactivity

Prompt: Recorded polyreactivity (PSR sort gate) for QVQLVESGGGLVQAGGSLRLSCADSGSTFTRYAIGWYRQAPGKEMEFVAAISWSGGITYYADSVKGRFTISRDNAKNTVYFQMKSLKPEDTAVYYCAAKRRYTRGGYGVDYWGQGTQVTVSS , please?
Completion: high polyreactivity

Prompt: Which value of polyreactivity (PSR sort gate) has been reported for QVQIVESGGGLVQAGGSLRISCAASGFTFRYYVMGWYRQAPGKEREFVAAISRSGGITYADSVKGRFTISRDNAKNTVYLQMNSLKPEDTAVYYCNAKSRTGYGRGDYWGQGTQVTVSS in the records?
Completion: high polyreactivity

Prompt: Quick one: polyreactivity (PSR sort gate) of QVQLVESGGGLVQAGGSLRLSCAASGSIFLKNVMGWYRQAPGKERELVAAITARGGATYYADSVKGRFTISRDNAKKTVYLQLNSQKPEDTAVYYCAARARVVPSLGNPRMDYWGQGTQVTVSS ?
Completion: high polyreactivity

Prompt: Quick one: polyreactivity (PSR sort gate) for QVQLVESGGGLVQAGGRLRLSCAASGSTFRYYAMGWYRQAPWKERELVAAISSTGTRTYYADSVKGRFTISRDNAKNTVYLQMNSLKPEDTAVSYCAADYVRYATRYDYWGQGTQVTVSS ?
Completion: high polyreactivity

----------
# Assay procedure: yeast display, Sf9 membrane polyspecificity reagent, FACS + sequencing; frameworks hold sequencing errors
Observable: polyreactivity (PSR sort gate)

The cases that follow already have their polyreactivity (PSR sort gate) on record.
QVQLVESGGGLVQAGGSLRLSCAASGRIFNRNAMGWYRQAPGKEREFVAAISRSGGTTYYADSVKGRFTFSRDNAKNTVYLQINSLKPEDTAFYYCNAVRYQTEVDYWGQGTQVTVSS; high polyreactivity
QVQLVESGGGLVQAGGSLRLICAASGTFRINAMGWYRQAPGKEREFVATITSGGSTNYADSVKGRFTISRDNAKNTVYLQMNSLKPEDTAVYYCSRTRKIAGYYFWGQGTQVTVSS; high polyreactivity
QVQLEDSGGGLVQAGGSLRLSCAASGRIFYAYAMGWYRPAPGKEREFVASISGSGGSTYYADSVKGRFTISRDNAKNTVYLQMNSLKPEDTAVYYCAKRYPFFSSGLSPYNYWGQGTQVTVSS; high polyreactivity
QVQLVESGGGLVQAGGSLRLSCAASGSTSLIYAMGWYRQAPGKERELVARISGSGGSTFYADSVKGRFTISRDNAKNTVFLQMNSLKPEDTAVYYCAAYIRGRRYNWATVGYNYWGQGTQVTVSS; high polyreactivity
QVQLVESGGGLVQAGGSLRLSCAASGSTFAFNAMGWYRQAPGKERELVASISGSGSSTYYADSVKGRFTISRDNAKNTVYLQMNSMKPEVTAVYYCDARVGARVSPPRRHGRFNYWGQGTQVTVSS; high polyreactivity

Prompt: Give the measured polyreactivity (PSR sort gate) of QVQLVESGGGLFQAGGSLRLSCAASGIIFSSNAMGWSRQAPGKERELVAAISSSGSRTYYAASVKGRFTISRDNAKNTVYFQMNSLKPEDTAVYYCAARTISSLNHHGYWGQGTQVTVSS .
Completion: high polyreactivity

Prompt: # lookup: polyreactivity (PSR sort gate) of QVQLVESWRGLDQAGGSLRLICSASGGIFKGYSMGWFRQAPGKERELVAVISSRVGSTYYADSLKGRFTISRDNEKNTVYLQMNSQKPEHTAVYYCAKRRYAAVNYNYWGQGTQVTVSS
Completion: high polyreactivity

Prompt: Value lookup for polyreactivity (PSR sort gate); key = QVQLVESGGGLVQAGGSLRLSCAASGLIFGRNAMGWYRQAPGKERELVAAISWSGGSTYYADSVKGRFTISRDNAKNTVYLQMNSLKPEDTAVYYCNRYRYYGSEDDYWGQGTQVTVSS
Completion: high polyreactivity

Prompt: Suppose we examine the sequence QAQLQESGGSLVQAGGGLRLSCAASGYISVGSVMGWYRQAPSKERELVASIDQGANTNYADSVKGRFTISRDNAKNYVYLQMNSLKPEDTAVYYCATETTYILNYWGQGTQVTVSS ; what polyreactivity (PSR sort gate) value has been reported?
Completion: low polyreactivity

Prompt: Which value of polyreactivity (PSR sort gate) has been reported for QVQLVESGGGLVQAGGSLRLSCAASGSIFPDNAMGWDRQAPGKERELVAAITSGGGTYYADSVKGRFTISRDNAKNTVYLQMNSLKPEDTAVYYCNTEDYTQYEPGYYPPNYYWGQGTQVTVSS in the records?
Completion: low polyreactivity

Prompt: Requested field: polyreactivity (PSR sort gate). Item: QVQLVESGGGLVQAGGSLRLSCAASGSTFFAYAMGWYRQAPGKERELVAAITGRGSTYYADSVKGRFTISRDNAKNTVYLQMNSLKPEDTAVYYCAAQRSRRYYRLDYWGQGTQVTVSS
Completion: high polyreactivity
